Tested on: primary rat mixed cortical cells
Assay Explanation: In vitro myelination assay (MBP positive myelin strands, fold myelin pixels above background)
Format: cell-based
Condition Label: Rattus norvegicus, 10.0 μM compound; read-out: Fold myelin pixels above background relative to baseline of no added compound
// reported fold induction at 10 µM per item

{"columns": ["Compound", "fold induction at 10 µM"],
 "data": [
  ["COCCN1CC(Nc2cc(C)cc(Nc3ncn(-c4cc(F)cc(F)c4)n3)c2)CC1=O (stereo not shown) [Compound 934]", "≤ 1"],
  ["CCC1COC(C)CN1CCNc1cc(C)cc(Nc2ncn(-c3cc(F)cc(F)c3)n2)c1 (stereo not shown) [Compound 974]", "≤ 1"],
  ["Cc1cc(Nc2ncn(-c3cc(F)cc(F)c3)n2)nc(N2CCCC(CO)C2)c1 (stereo not shown) [Compound 815]", "10 to 100"]
]}

Next up:
Asked: So what's the measured fold induction at 10 µM for this one? COCCN1CCN(c2cc(C)cc(Nc3ncn(-c4cc(F)cc(F)c4)n3)c2)CC1=O [Compound 1067]
Given back: ≤ 1

###

Test system: primary rat mixed cortical cells
Assay Explanation: In vitro myelination assay (MBP positive myelin strands, fold myelin pixels above background)
Type: cell-based
Condition Label: Rattus norvegicus, 10.0 μM compound, relative to baseline of no added compound; read-out: Fold myelin pixels above background, 10.0 μM
Quantity: fold induction at 10 µM

Some compounds with known fold induction at 10 µM results, for comparison:
{"columns": ["Compound", "Assay System", "Test Result"],
 "data": [
  ["Cc1cc(Nc2ncn(-c3cc(F)cc(F)c3)n2)cc(O[C@H]2CCN(C3COC3)C2)c1", "primary rat mixed cortical cells", "≤ 1"],
  ["Cc1cc(Nc2ncn(-c3ccccc3C#N)n2)cc(N2CCCC2)c1", "primary rat mixed cortical cells", "≤ 1"]
]}

Asked: Given the entry Cc1cc(Nc2ncn(-c3ccccc3)n2)cc(N2CC(CC(C)C)N3CCC[C@@H]3C2)c1 (stereo partly shown) , report its measured fold induction at 10 µM.
Given back: ≤ 1

Asked: Please give the measured fold induction at 10 µM for this compound: "CCc1cc(Nc2ncn(-c3cnccn3)n2)cc(N2CCN(C(=O)OC(C)(C)C)CC2)c1"
Given back: 1 to 10

###

System: primary rat mixed cortical cells
Assay Explanation: In vitro myelination assay (MBP positive myelin strands, fold myelin pixels above background)
Format: cell-based
Condition Label: Rattus norvegicus, 1.0 μM compound, relative to baseline of no added compound; read-out: Fold myelin pixels above background
Quantity: fold induction at 1 µM

Asked: What fold induction at 1 µM value was documented for this compound, Cc1cc(Nc2ncn(-c3cc(F)cc(F)c3)n2)cc(C2CN(C3COC3)CC(C)O2)c1 (centres unmarked) [Compound 663] ?
Given back: 10 to 100

Asked: State the recorded fold induction at 1 µM for this entry: Fc1ccc(-n2cnc(Nc3cc(Cl)cc(N4CC(N5CCOCC5)C4)c3)n2)cc1F [Compound 784]
Given back: 10 to 100

Asked: Fill blank: measured fold induction at 1 µM of the compound Fc1ccc(-n2cnc(Nc3cc(N4CCOCC4)nc(N4CCOCC4)c3)n2)cc1F [Compound 393] is ____.
Given back: 100 to 1000

Asked: // returns reported fold induction at 1 µM for input Cc1cc(Nc2ncn(-c3cncnc3)n2)cc(N2CCN(C3COC3)CC2)c1 [Compound 535]
Given back: 1 to 10

Asked: Which value of fold induction at 1 µM has been reported for Cc1cc(Nc2ncn(-c3cc(F)cc(F)c3)n2)cc(N2C[C@H]3C[C@@H]2CN3C)c1 [Compound 459] in the records?
Given back: 10 to 100

Asked: Would you kindly share the measured fold induction at 1 µM for FC(F)c1cc(Nc2ncn(-c3cccc(C(F)(F)F)c3)n2)nc(N2CC(N3CCOCC3)C2)c1 [Compound 719] ?
Given back: 1 to 10

Asked: Please report the recorded fold induction at 1 µM for Cc1cc(Nc2ncn(-c3cc(F)cc(F)c3)n2)cc([C@@]2(C)CNC(=O)O2)c1 (single isomer, unassigned) [Compound 679] .
Given back: 10 to 100

Asked: Please look up its fold induction at 1 µM: Fc1cc(F)cc(-n2cnc(Nc3cc(C(F)(F)F)cc(N4CCNCC4)n3)n2)c1 [Compound 556]
Given back: 1 to 10

Asked: What does the data say about its fold induction at 1 µM? Entry: Fc1cc(F)cc(-n2cnc(Nc3cc(C(F)(F)F)cc(N4CCN(C5COC5)CC4)n3)n2)c1 [Compound 540]
Given back: 10 to 100

Asked: Given the compound Cc1cc(N2CCN(C3COC3)CC2)cc(Nc2ncn(-c3cc(F)cc(F)c3)n2)c1F [Compound 587] , what is its reported fold induction at 1 µM?
Given back: 1 to 10

Asked: Look up fold induction at 1 µM for this compound: CCc1cc(Nc2ncn(-c3cncc(C)n3)n2)cc(N2CCN(C3COC3)CC2)c1 [Compound 401]
Given back: 100 to 1000

Asked: So what does the record say about fold induction at 1 µM for Cc1cc(Nc2ncn(-c3cc(F)cc(F)c3)n2)cc(C2CCCN(C3CC(C(=O)O)C3)C2)c1 (centres unmarked) [Compound 442] ?
Given back: 10 to 100

Asked: Consider the compound shown here: COC(=O)N1CCN(c2cc(C)cc(Nc3ncn(-c4cc(F)cc(F)c4)n3)c2)CC1 [Compound 422] What is its recorded fold induction at 1 µM?
Given back: ≤ 1

Asked: Param item = Cc1cc(Nc2ncn(-c3cc(F)cc(F)c3)n2)cc([C@@]2(C)CN(C3COC3)CCO2)c1 (single isomer, unassigned) [Compound 667] ; retrieve measured fold induction at 1 µM.
Given back: 10 to 100

Asked: Could you tell me which fold induction at 1 µM is on file for Cc1cc(NC[C@@]2(C)CCCO2)cc(Nc2ncn(-c3cc(F)cc(F)c3)n2)c1 (stereo in doubt) [Compound 490] ?
Given back: 10 to 100

Asked: Endpoint output: fold induction at 1 µM of Cc1cc(Nc2ncn(-c3cccc(C#N)c3)n2)cc(N2CCN(C)CC2)c1 [Compound 499] . Value?
Given back: 100 to 1000

Asked: State the recorded fold induction at 1 µM for this entry: Cc1cc(Nc2ncn(-c3cc(F)cc(F)c3)n2)c(F)c(NC2CCOC2)c1 (centres unmarked) [Compound 765]
Given back: 10 to 100

Asked: What value of fold induction at 1 µM has been reported for the following compound? Cc1cc(Nc2ncn(-c3cccc(C(F)(F)F)c3)n2)nc(NC2CCOC2)c1 (centres unmarked) [Compound 600]
Given back: 1 to 10
